Origin of measurements: patent US20240285571A1

Tested on: Escherichia coli
assay details: Broth microdilution MIC (Example 6)
Format: cell-based
test parameters: Escherichia coli, E. coli MMX 5745; KPC; read-out: MIC
The entries below are paired with their reported MIC.
Please respond with the number in µg/mL and leave the unit unwritten.

Worked cases, answers included:
smiles code	result units	value
CC(C)(O/N=C(\C(=O)N[C@@H]1C(=O)N2C(C(=O)[O-])=C(C[n+]3ccccc3)CS[C@H]12)c1csc(N)n1)C(=O)O	µg/mL	32
C[C@@H](O)[C@H]1C(=O)N2C(C(=O)O)=C(S[C@@H]3CN[C@H](C(=O)N(C)C)C3)[C@H](C)[C@H]12	µg/mL	2
C[C@H]1COc2c(N3CCN(C)CC3)c(F)cc3c(=O)c(C(=O)O)cn1c23	µg/mL	8

[Q] Which MIC reading was recorded for the compound NCC[C@H](O)C(=O)N[C@@H]1C[C@H](N)[C@@H](O[C@H]2O[C@H](CN)[C@@H](O)[C@H](O)[C@H]2O)[C@H](O)[C@H]1O[C@H]1O[C@H](CO)[C@@H](O)[C@H](N)[C@H]1O ?
[A] 0.5
